Source: paper PMC4176481

Molecular target: T1, cholecystokinin-2/gastrin receptor (CCK2R) (Homo sapiens, UniProt P32239)
T1 chain: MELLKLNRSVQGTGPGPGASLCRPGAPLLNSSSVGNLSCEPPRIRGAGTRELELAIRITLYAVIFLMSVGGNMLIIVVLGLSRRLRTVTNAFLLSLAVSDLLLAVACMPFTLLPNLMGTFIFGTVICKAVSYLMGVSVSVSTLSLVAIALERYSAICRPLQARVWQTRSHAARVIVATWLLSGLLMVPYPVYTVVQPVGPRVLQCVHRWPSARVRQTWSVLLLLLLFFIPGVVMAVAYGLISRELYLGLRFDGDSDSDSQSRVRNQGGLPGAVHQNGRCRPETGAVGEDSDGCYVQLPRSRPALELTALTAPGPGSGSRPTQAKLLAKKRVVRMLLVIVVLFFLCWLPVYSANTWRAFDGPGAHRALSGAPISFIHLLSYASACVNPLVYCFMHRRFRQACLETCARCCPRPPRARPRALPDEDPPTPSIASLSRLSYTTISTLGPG
Test: competition with QE probe on cells, NIR fluorescence
MEASURED METRIC: IC50 (nM)
Answer with a number only, understood to be in nM.

Given the binder LEEEEEAYGWMDF [HG-13 minigastrin] , write its reported IC50.
16.7
